MEASURED TARGET: CGRP antigen
PROCEDURE DETAILS: cell-based or functional assay
Quick reference for IC50 among some binders
Report the figure in ng/mL without appending any unit label.

For orientation, consider the following solved cases.
* hu32 (antibody, V domains shown, 1F5 HC-1/1F5 LC1-2) VH: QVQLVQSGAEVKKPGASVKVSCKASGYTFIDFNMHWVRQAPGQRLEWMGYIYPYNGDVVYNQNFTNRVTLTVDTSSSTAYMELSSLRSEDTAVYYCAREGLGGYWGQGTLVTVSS VL: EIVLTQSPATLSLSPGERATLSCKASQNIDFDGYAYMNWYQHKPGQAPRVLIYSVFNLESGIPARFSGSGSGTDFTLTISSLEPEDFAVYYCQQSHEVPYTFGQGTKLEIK | 137
* hu231 (antibody, human IgG4 S228P, kappa, V domains shown) VH: QVQLVQSGSELKKPGASVKVSCKASGYTFTGYTMNWVRQAPGQGLEWMGLINPYIGNTHYNQKFKDRFVFSVDRSSSTAYLQISSLKAEDTAVYYCARELDSGFDYWGQGTLVTVSS VL: DVVMTQTPLSLSVTPGQPASISCRSSQNIVHSNGDTYLEWYLQKPGQSPQLLIYKVSNRFSGVPDRFSGSGSGTDFTLKISRVEAEDVGVYYCYQGSHVPWTFGQGTKLEIKR | 28.4
* hu64 (antibody, V domains shown, 1F5 HC-3/3H10 LC2-1) VH: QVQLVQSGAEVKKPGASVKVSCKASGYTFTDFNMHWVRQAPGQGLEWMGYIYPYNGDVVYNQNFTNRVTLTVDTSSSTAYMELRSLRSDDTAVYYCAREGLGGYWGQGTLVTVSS VL: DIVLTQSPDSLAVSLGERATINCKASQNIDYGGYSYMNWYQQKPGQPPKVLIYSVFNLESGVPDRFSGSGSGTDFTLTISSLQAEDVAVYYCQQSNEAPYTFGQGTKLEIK | 69.9
* hu136 (antibody, V domains shown, 2B8 HC1-3/1F5 LC1-2) VH: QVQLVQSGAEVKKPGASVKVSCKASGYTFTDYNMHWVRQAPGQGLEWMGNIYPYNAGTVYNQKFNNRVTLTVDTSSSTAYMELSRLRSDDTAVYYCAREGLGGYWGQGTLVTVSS VL: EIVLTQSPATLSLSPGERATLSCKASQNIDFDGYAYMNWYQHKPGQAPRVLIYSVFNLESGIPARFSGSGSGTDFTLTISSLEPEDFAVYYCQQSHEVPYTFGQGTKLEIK | 124

Requested field: IC50. Item: hu229 (antibody, V domains shown, 3C1 HC-2/3C1 LC-4) VH: QVQLVQSGAEVKKPGASVKVSCKASGYTFTGYTMNWVRQAPGQRLEWMGLINPYIGNTHYNQKFKDRVTFTVDRSSSTAYMELSSLRSEDTAVYYCARELDSGFDYWGQGTLVTVSS VL: DVVMTQSPDSLAVSLGERATINCRSSQNIVHSNADTYLEWYQQKPGQPPKLLIYKVSNRFSGVPDRFSGSGSGTDFTLTISSLQAEDVAVYYCYQGSHVPWTFGQGTKLEIK 85.1
